Parameter IC50, tested on Beta-galactosidase (Bos taurus, UniProt Q58D55), listed per item.
Sequence (Q58D55 whole entry): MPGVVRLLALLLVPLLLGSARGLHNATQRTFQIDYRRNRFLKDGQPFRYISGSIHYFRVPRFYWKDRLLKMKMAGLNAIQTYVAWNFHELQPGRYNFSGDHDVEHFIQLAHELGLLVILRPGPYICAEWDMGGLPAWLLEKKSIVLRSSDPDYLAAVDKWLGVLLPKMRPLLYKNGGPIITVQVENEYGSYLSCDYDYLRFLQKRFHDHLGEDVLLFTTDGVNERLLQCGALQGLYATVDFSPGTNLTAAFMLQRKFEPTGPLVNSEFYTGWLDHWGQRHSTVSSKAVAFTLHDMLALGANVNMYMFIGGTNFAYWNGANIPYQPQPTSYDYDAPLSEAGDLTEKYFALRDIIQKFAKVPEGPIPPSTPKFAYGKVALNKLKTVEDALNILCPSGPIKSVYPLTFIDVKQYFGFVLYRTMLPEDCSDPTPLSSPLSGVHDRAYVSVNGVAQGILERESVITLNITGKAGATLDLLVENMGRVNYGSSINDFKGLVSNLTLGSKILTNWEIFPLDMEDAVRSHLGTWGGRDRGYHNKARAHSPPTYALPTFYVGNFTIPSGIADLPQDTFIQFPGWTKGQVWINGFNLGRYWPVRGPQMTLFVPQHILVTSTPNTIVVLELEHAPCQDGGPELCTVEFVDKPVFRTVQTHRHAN
One number for each entry, in nM.

{"columns": ["molecularString", "IC50 [nM]"],
 "data": [
  ["Cc1ccc(CNC2=N[C@H](CO)[C@H](O)[C@H](O)C2)cc1", 850],
  ["OC[C@H]1N/C(=N\\Cc2ccc(C(F)(F)F)cc2)[C@H](O)[C@@H](O)[C@H]1O", 15.2]
]}

**Q:** Let me know recorded IC50 for OC[C@H]1N/C(=N\CCCc2ccccc2)[C@H](O)[C@@H](O)[C@H]1O , thanks.
**A:** 41.3

====

- assayNotes: Inhibition of Aspergillus oryzae beta-galactosidase using 2-chloro-4-nitrophenyl b-dgalactopyranoside substrate
What Ki was measured for each of the following?
Give bare numbers, in nM.

// solved cases for Ki follow
{"columns": ["molecularString", "propertyLabel", "assayValue"],
 "data": [
  ["COc1ccc(C/N=C2\\N[C@H](CO)[C@H](O)[C@H](O)[C@H]2O)cc1", "Ki", 17.1],
  ["CO[C@H]1C(NCc2ccc(C)cc2)=N[C@H](CO)[C@H](O)[C@@H]1O", "Ki", 3400]
]}

# batch: return Ki for each of the 3 compounds below
1. OC[C@H]1N/C(=N\C2CC2)[C@H](O)[C@@H](O)[C@H]1O
2. OC[C@H]1N/C(=N\Cc2ccccc2F)[C@H](O)[C@@H](O)[C@H]1O
3. OC[C@H]1N/C(=N\Cc2ccc(C(F)(F)F)cc2)[C@H](O)[C@@H](O)[C@H]1O

**A:**
1: 31.9; 2: 16.1; 3: 15.7

====

- assayNotes: Inhibition of Aspergillus oryzae beta-galactosidase using 2-chloro-4-nitrophenyl b-dgalactopyranoside substrate relative to control
Could you mark each record MET if its IC50 falls strictly under 100 nM, and NOT MET if it equals or exceeds it?

Below are worked cases with known answers.
{"columns": ["compound", "qualitativeLabel"],
 "data": [
  ["OC[C@H]1N/C(=N\\Cc2ccc(C(F)(F)F)cc2)[C@H](O)[C@@H](O)[C@H]1O", "NOT MET"],
  ["Cc1ccccc1C/N=C1\\N[C@H](CO)[C@H](O)[C@H](O)[C@H]1O", "NOT MET"],
  ["OC[C@H]1N/C(=N\\CC2CCCCCC2)[C@H](O)[C@@H](O)[C@H]1O", "MET"],
  ["OC[C@H]1N/C(=N\\CC2CCCCC2)[C@H](O)[C@@H](O)[C@H]1O", "MET"],
  ["OC[C@H]1N/C(=N\\Cc2ccccc2)[C@H](O)[C@@H](O)[C@H]1O", "MET"],
  ["CCCCC(CC)CNC1=N[C@H](CO)[C@H](O)[C@H](O)[C@H]1O (stereo not given in full)", "MET"],
  ["OC[C@H]1N/C(=N\\Cc2ccc(F)cc2)[C@H](O)[C@@H](O)[C@H]1O", "NOT MET"],
  ["OC[C@H]1N/C(=N\\C2CCCCC2)[C@H](O)[C@@H](O)[C@H]1O", "NOT MET"]
]}

**Q:** A record lists OC[C@H]1N/C(=N\C2CC2)[C@H](O)[C@@H](O)[C@H]1O . Is its IC50 below 100 nM?
**A:** NOT MET

**Q:** Does the reported IC50 of Cc1ccc(CNC2=N[C@H](CO)[C@H](O)[C@H](O)C2)cc1 stay below 100 nM?
**A:** NOT MET
